REPORTED_PROPERTY: melting point

Request: Item under review: Cc1cn2cc(-c3cc4ccc(N5CCCNCC5)cc4oc3=O)ccc2n1 . Reported melting point?
Result: 222 to 225 °C

Request: Find the recorded melting point belonging to COc1ccc(-c2cc3ccc(N4CCN[C@H](C)C4)cc3oc2=O)c(OC)c1 and report it.
Result: 101 to 103 °C

Request: Any idea what its melting point is? The compound is CN(C)CCN(C)c1ccc2cc(-c3cn4ccsc4n3)c(=O)oc2c1
Result: 185 to 188 °C

Request: # input compound: CCc1cn2cc(-c3cc4ccc(N5CCCN(C)CC5)cc4oc3=O)nc2s1 ; wanted: its melting point
Result: 188 to 191 °C

Request: Find the recorded melting point belonging to Cc1cn2cc(-c3cc4ccc(C5CCN(C)CC5)cc4oc3=O)nc2cn1 and report it.
Result: 266 to 272 °C

====

So I've got a bunch of compounds here, and I need their melting point values.

Request: What does the record list as melting point for Cc1cn2cc(-c3cc4ccc(CCCNCC5CCCO5)cc4oc3=O)nc2c(C)n1 (stereo not shown) [Compound 932] ?
Result: 147 to 150 °C

Request: Entry O=c1oc2cc(N3CCN4CCC3CC4)ccc2cc1-c1cn2cccc(F)c2n1 [Compound 501] has what melting point?
Result: 175 to 178 °C

Request: I am curious: what melting point value has been reported for Cc1cn2cc(-c3cc4ccc(O[C@@H]5CCN(C(C)CO)C5)cc4oc3=O)nc2c(C)n1 (stereo partly shown) [Compound 893] ?
Result: 196 to 202 °C

Request: Which measured melting point value corresponds to CN1CCN(c2ccc3cc(-c4cccc(OC5CCC5)n4)c(=O)oc3c2)CC1 [Compound 415] ?
Result: 158 to 160 °C

Request: Which melting point is listed for Cn1cc2cc(-c3cc4ccc(C5CCNCC5)cc4oc3=O)ccc2n1 [Compound 856] ?
Result: 232 to 238 °C

Request: # get_value(readout='melting point', item= Cc1cn2cc(-c3cc4ccc(CCCNCc5ccsc5)cc4oc3=O)nc2c(C)n1 [Compound 934] )
Result: 149 to 152 °C

Request: Given Cc1cn2cc(-c3cc4ccc(C5=CCN(CCO)CC5)cc4oc3=O)nc2c(C)n1 [Compound 801] , state its recorded melting point.
Result: 172 to 214 °C

Request: Which measured melting point value corresponds to O=C(Oc1ccc2cc(-c3nc4ccccc4s3)c(=O)oc2c1)N1CCNCC1 [Compound 41] ?
Result: 221 to 225 °C

Request: Would you mind telling me what melting point value was observed for Cc1csc2nc(-c3cc4ccc(N5CCN(C)CC5)cc4oc3=O)cn12 [Compound 185] ?
Result: 213 to 216 °C

Request: Suppose we examine the compound Cc1ccn2cc(-c3cc4ccc(N5CCN[C@H](C)C5)cc4oc3=O)nc2c1 [Compound 214] ; what melting point value has been reported?
Result: 222 °C

Request: Recorded melting point for O=c1oc2cc(N3CCNCC3)ccc2cc1-c1cn2cccnc2n1 [Cpd 89] , please?
Result: 286 °C (dec.)

Request: Tell me the measured melting point of O=c1oc2cc(N3CCNCC3)ccc2cc1-c1cn2cc(F)cnc2n1 [Compound 502] , please.
Result: 250 to 261 °C

Request: Record request: melting point value, item Cc1cn2cc(-c3cc4ccc(N5C[C@@H](C)N[C@@H](C)C5)cc4oc3=O)cc2c(C)n1 [Compound 645]
Result: 170 to 173 °C

Request: Could you tell me which melting point is on file for CN1CCN(c2ccc3cc(-c4cccc(C(F)(F)F)c4)c(=O)oc3c2)CC1 [Compound 11] ?
Result: 150 to 156 °C

Request: Quick one: melting point for CCOc1ncccc1-c1cc2ccc(N3CCNCC3)cc2oc1=O [Compound 256] ?
Result: 186 to 188 °C

Request: // lookup melting point for Cc1nc(Cl)cn2cc(-c3cc4ccc(N5CCN[C@@H](C)C5)cc4oc3=O)nc12 [Compound 713]
Result: 235 to 238 °C

Request: Any idea what its melting point is? The compound is C[C@H]1CN(c2ccc3cc(-c4cccc(Cl)c4)c(=O)oc3c2)CCN1 [Compound 509]
Result: 149 to 151 °C

Request: Fill in: melting point of Cc1cn2cc(-c3cc4ccc(N5CCNCC5)cc4oc3=O)nc2cn1 [Compound 567] is ___
Result: 288 to 290 °C

Request: Name the reported melting point value associated with the compound CN1CCCN(c2ccc3cc(-c4cn5cnccc5n4)c(=O)oc3c2)CC1 [Compound 460]
Result: 225 to 227 °C

Request: Return reported melting point; argument: Cc1cn2cc(-c3cc4ccc(N5CC[C@@H](N(C)C)C5)cc4oc3=O)cc2cn1 [Compound 693]
Result: 206 to 208 °C

Request: Report melting point for CCN1CCN(c2ccc3cc(-c4cn5c(C)csc5n4)c(=O)oc3c2)CC1 [Compound 178] please.
Result: 178 to 180 °C

Request: What melting point value was documented for this compound, COc1ccc(-c2cc3c(F)cc(N4CCCN(C)CC4)cc3oc2=O)cc1OC [Compound 406] ?
Result: 134 to 140 °C

Request: What does the data say about its melting point? Entry: CCN1CCN(c2ccc3cc(-c4cn5cc(C)sc5n4)c(=O)oc3c2)CC1 [Compound 151]
Result: 205 to 208 °C

Request: Looking for the measured melting point of Cl.O=c1oc2cc(OC3CCNCC3)ccc2cc1-c1cn2cccnc2n1 [Compound 197] , can you help?
Result: > 310 °C

Request: Given CCN1C[C@@H]2CN(c3ccc4cc(-c5cn6cc(C)nc(C)c6n5)c(=O)oc4c3)C[C@@H]2C1 [Compound 747] , state its recorded melting point.
Result: 231 to 237 °C

Request: // returns reported melting point for input Cc1cc(F)c2nc(-c3cc4ccc(N5CCCN(C)CC5)cc4oc3=O)cn2c1 [Compound 355]
Result: 233 to 240 °C

Request: State the recorded melting point for this entry: Cc1cn2cc(-c3cc4ccc(CCCN5CCN(C)CC5)cc4oc3=O)nc2c(C)n1 [Compound 860]
Result: 219 to 223 °C

Request: # melting point lookup, item CC(c1ccc2cc(-c3nc4ccccc4s3)c(=O)oc2c1)N(C)C (stereo not shown) [Cpd 143]
Result: 130 to 133 °C

Request: Give the measured melting point of CCN1CCC(c2ccc3cc(-c4ccc5nn(C)cc5c4)c(=O)oc3c2)CC1 [Compound 863] .
Result: 196 to 198 °C

Request: Quick check: melting point of O=c1oc2cc(N3CCNCC3)cc(F)c2cc1-c1cn2ccsc2n1 [Compound 311] ?
Result: 278 to 283 °C

Request: Any idea what its melting point is? The compound is Cc1nn2cc(-c3cc4ccc(N5CCCNCC5)cc4oc3=O)nc2s1 [Compound 450]
Result: 215 to 218 °C

Request: Name the recorded melting point for Cc1cc2oc(-c3cc4ccc(N5CCN(C(C)C)CC5)cc4oc3=O)cc2c(C)n1 [Compound 840] .
Result: 186 to 191 °C

Request: Recorded melting point for O=c1oc2cc(N3CCNCC3)ccc2cc1-c1nc2ccccc2[nH]1 [Compound 313] , please?
Result: 254 to 258 °C

Request: Consider the compound C[C@@H]1CN(c2ccc3cc(-c4cn5cccnc5n4)c(=O)oc3c2)C[C@H](C)N1 [Compound 107] and give its measured melting point.
Result: 256 to 258 °C

====

REPORTED_PROPERTY: melting point

Request: Return reported melting point; argument: CCc1cc(C)cn2cc(-c3cc4ccc(N5CCCN(C)CC5)cc4oc3=O)nc12
Result: 172 to 176 °C

Request: # input molecule: COc1ccc(-c2cc3ccc(N4CCN[C@@H](C)C4)cc3oc2=O)c(OC)c1 ; wanted: its melting point
Result: 103 to 105 °C

Request: Requested field: melting point. Item: O=c1oc2cc(N3CCNCC3)ccc2cc1-c1ccn[nH]1
Result: 224 to 228 °C

Request: Would you mind telling me what melting point value was observed for Cc1cc(F)c2nc(-c3cc4ccc(N5CCN[C@H](C)C5)cc4oc3=O)cn2c1 ?
Result: 246 to 254 °C

Request: Item under review: Cc1cn2cc(-c3cc4ccc(N5CC[C@H](CN(C)C)C5)cc4oc3=O)nc2c(C)n1 . Reported melting point?
Result: 206 to 208 °C

Request: Could you tell me which melting point is on file for Cc1nc(Cl)cn2cc(-c3cc4ccc(N5CCN(C)[C@H](C)C5)cc4oc3=O)nc12 ?
Result: 250 to 252 °C

Request: Which melting point reading was recorded for the molecule C[C@@H]1CN(c2ccc3cc(-c4cn5cccnc5n4)c(=O)oc3c2)CCN1 ?
Result: 285 to 287 °C

Request: Quick check: melting point of C[C@@H]1CN(c2ccc3cc(-c4cc5cnccc5s4)c(=O)oc3c2)C[C@H](C)N1 ?
Result: 163 to 165 °C

Request: Which melting point value is on record for Cc1cn2cc(-c3cc4ccc(N5CC(N6CCCCC6C)C5)cc4oc3=O)nc2c(C)n1 (stereo not shown) ?
Result: 220 to 228 °C

Request: Request the reported melting point associated with Cc1cn2cc(-c3cc4ccc(C5CCN(C6COC6)CC5)cc4oc3=O)ccc2n1
Result: 198 to 200 °C

Request: I would be grateful if you could share the reported melting point for Cc1cc(F)c2nc(-c3cc4ccc(N5CCNC(C)(C)C5)cc4oc3=O)cn2c1 .
Result: 275 to 284 °C

Request: Could you tell me which melting point is on file for Cc1cn2cc(-c3cc4ccc(N5CC[C@H](N(C)C)C5)cc4oc3=O)cc2cn1 ?
Result: 200 to 204 °C

Request: So what does the record say about melting point for Cl.Cl.O=c1oc2cc(O[C@@H]3CCNC3)ccc2cc1-c1cn2ccsc2n1 ?
Result: 252 to 256 °C

Request: Could you tell me which melting point is on file for Cc1ccc2nc(-c3cc4ccc(N5CC6CCCNC6C5)cc4oc3=O)cn2c1 (stereo not shown) ?
Result: 220 to 230 °C

Request: Return reported melting point; argument: Cc1nccc(-c2cc3ccc(N4CCNCC4)cc3oc2=O)n1.Cl
Result: 200 °C (dec.)

Request: // returns reported melting point for input Cc1cn2cc(-c3cc4ccc(N5CC(N6CCCCC6)C5)cc4oc3=O)nc2c(C)n1
Result: 284 to 286 °C

Request: What value of melting point has been recorded for this entry: Cc1cn2cc(-c3cc4ccc(N5CCN(C6COC6)CC5)cc4oc3=O)nc2c(C)n1
Result: 230 to 235 °C

Request: GET /values?readout=melting point&item= CN1CCN(c2ccc3cc(-c4cn5cccc(C(F)(F)F)c5n4)c(=O)oc3c2)CC1
Result: 235 to 237 °C

Request: I'd like to know its melting point. The molecule in question is Cc1cn2cc(-c3cc4ccc(N5CCN6CCC[C@H]6C5)cc4oc3=O)cc2c(C)n1
Result: 169 to 173 °C

Request: Bench note: what melting point did Cc1ccc2nc(-c3cc4ccc(N5C[C@@H]6C[C@H]5CN6)cc4oc3=O)cn2c1 show?
Result: 212 to 215 °C

Request: What value of melting point has been reported for the following molecule? Cc1ccn2cc(-c3cc4ccc(N5CCNCC5)cc4oc3=O)nc2c1
Result: 260 to 270 °C

Request: Look up melting point: Cc1cn2cc(-c3cc4ccc(N5CCN(C(C)C)[C@@H](C)C5)cc4oc3=O)cc2c(C)n1
Result: 153 to 156 °C

Request: Given COc1c(F)cc(F)cc1-c1cc2ccc(N3C[C@@H](C)N[C@@H](C)C3)cc2oc1=O , state its recorded melting point.
Result: 109 to 111 °C

Request: Field request: melting point | item: Cc1cn2cc(-c3cc4ccc(N5C[C@H]6CNC[C@H]6C5)cc4oc3=O)nc2cn1
Result: 282 to 292 °C

Request: Tell me the measured melting point of CN1CCCN(c2ccc3cc(-c4cn5cc(Cl)sc5n4)c(=O)oc3c2)CC1 , please.
Result: 229 to 232 °C

Request: Please look up its melting point: C[C@H]1CN(c2ccc3cc(-c4cccc(C(F)(F)F)c4)c(=O)oc3c2)CCN1
Result: 141 to 143 °C

Request: What value of melting point has been recorded for this entry: CSc1cccc(-c2cc3ccc(N4CCNCC4)cc3oc2=O)n1
Result: 180 to 183 °C

Request: What does the record list as melting point for Cc1nc(C)c2cc(-c3cc4ccc(N5CCNCC5)cc4oc3=O)sc2n1 ?
Result: 275 °C (dec.)

Request: What value of melting point has been reported for the following molecule? COc1ccc(-c2cc3c(F)cc(N4CCN[C@@H](C)C4)cc3oc2=O)cc1OC
Result: 118 to 120 °C

Request: # melting point lookup, item Cc1cn2cc(-c3cc4ccc(N5C[C@@H](O)[C@H](N(C)C)C5)cc4oc3=O)cc2c(C)n1
Result: 173 to 176 °C

Request: Data request, read-out melting point, for Cc1ccc2nc(-c3cc4c(F)cc(N5CCNCC5)cc4oc3=O)cn2c1
Result: 265 to 270 °C

Request: Find the recorded melting point belonging to Cc1cccn2cc(-c3cc4ccc(N5CCCNCC5)cc4oc3=O)nc12 and report it.
Result: 138 to 140 °C

Request: Please report the recorded melting point for COc1cccc(-c2cc3ccc(N4CCNCC4)cc3oc2=O)n1 .
Result: 162 to 165 °C

Request: What value of melting point has been recorded for this entry: Cc1ccc2nc(-c3cc4ccc(CN(C)CCO)cc4oc3=O)cn2c1
Result: 166 to 169 °C
